Measured values drawn from patent US20240228535A1 for this set.

# Tested on: SARS2 coronavirus 3CL protease (Severe acute respiratory syndrome coronavirus 2, UniProt P0DTD1)
# Assay info: biochemical
# Conditions used: 5 nM enzyme, 30 min pre-incubation with compound, 15 μM peptide substrate, 4 h at room temperature; read-out: FRET Potency (nM); IC50 values in the SARS2 3CLPro FRET assay
The label is T for IC50 below 8 nM and F for IC50 equal to or exceeding 8 nM.

Consider the following illustrative entries.
Compound: C[C@@H]1C[C@@H](C[C@H](NC(=O)c2cc(Cl)ccc2NC(=O)C2CC23CC3)C(=O)C(=O)NC2CC2)C(=O)N1 (stereo partly shown) [Example 82]
Label value: F
--
Compound: CNC(=O)C(=O)[C@H](C[C@@H]1C[C@@H](C)NC1=O)NC(=O)c1cc(Cl)ccc1NC(=O)c1ncc(C(F)(F)F)cn1
Label value: T
--
Compound: CNC(=O)C(=O)[C@H](C[C@@H]1C[C@@H](C)NC1=O)NC(=O)c1cc(Cl)ccc1NC(=O)C1COC1
Label value: T
--
Compound: CC(C)OC(=O)Nc1ccc(Cl)cc1C(=O)N[C@@H](C[C@@H]1CCNC1=O)C(=O)C(=O)NC1CC1
Label value: T
--
Compound: COC(=O)Nc1ccc(Cl)cc1C(=O)N[C@@H](C[C@@H]1C[C@@H](C)NC1=O)C(=O)C(N)=O
Label value: F

Threshold test, IC50 < 8 nM: `CNC(=O)C(=O)[C@H](C[C@@H]1C[C@@H](C)NC1=O)NC(=O)c1cc(Cl)cnc1NC(=O)OC`
T
